# TARGET OR SYSTEM: human TRPA1 (Homo sapiens, UniProt O75762)
# Sequence (O75762 whole entry): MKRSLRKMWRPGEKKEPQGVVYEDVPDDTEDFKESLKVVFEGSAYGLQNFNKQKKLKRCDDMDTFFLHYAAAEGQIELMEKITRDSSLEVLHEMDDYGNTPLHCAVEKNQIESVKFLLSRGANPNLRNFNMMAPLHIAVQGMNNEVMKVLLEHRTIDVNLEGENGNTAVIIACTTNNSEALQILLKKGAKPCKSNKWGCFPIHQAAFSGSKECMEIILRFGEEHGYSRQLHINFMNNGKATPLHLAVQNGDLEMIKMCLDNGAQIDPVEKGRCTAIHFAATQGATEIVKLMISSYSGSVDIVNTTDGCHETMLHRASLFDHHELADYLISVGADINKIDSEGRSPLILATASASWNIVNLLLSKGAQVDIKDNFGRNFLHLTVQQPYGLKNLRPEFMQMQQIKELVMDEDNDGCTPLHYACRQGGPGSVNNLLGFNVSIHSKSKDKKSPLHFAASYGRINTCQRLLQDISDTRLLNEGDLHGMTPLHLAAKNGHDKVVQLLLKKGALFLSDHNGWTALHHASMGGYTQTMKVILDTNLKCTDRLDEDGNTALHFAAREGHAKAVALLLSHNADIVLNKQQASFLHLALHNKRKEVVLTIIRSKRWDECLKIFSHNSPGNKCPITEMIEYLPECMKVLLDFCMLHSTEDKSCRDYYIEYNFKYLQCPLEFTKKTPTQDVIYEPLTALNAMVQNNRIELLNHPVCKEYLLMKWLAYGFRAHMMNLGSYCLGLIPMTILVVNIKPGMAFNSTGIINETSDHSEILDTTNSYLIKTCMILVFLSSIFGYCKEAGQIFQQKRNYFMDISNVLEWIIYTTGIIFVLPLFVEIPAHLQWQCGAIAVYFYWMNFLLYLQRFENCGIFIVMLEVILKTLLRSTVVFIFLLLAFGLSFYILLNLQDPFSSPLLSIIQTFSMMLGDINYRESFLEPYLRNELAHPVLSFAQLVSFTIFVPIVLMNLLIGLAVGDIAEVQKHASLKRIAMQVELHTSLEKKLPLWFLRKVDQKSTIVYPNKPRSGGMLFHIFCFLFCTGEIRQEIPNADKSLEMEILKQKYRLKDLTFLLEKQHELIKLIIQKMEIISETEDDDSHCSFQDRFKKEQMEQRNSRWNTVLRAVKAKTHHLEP
# PROCEDURE TEXT: Calcium imaging of TRPA1 activation in human TRPA1 stably expressing HEK293 cells
REPORTED PROPERTY: IC50 (µM)

1) CC/C(=C\C(CC)c1ccccc1)CO (stereo not drawn) [Compound 7, (E)-2-ethyl-4-phenyl-2-hexen-1-ol] :: 3.4
2) CC/C(=C/C(CC)c1ccccc1)CO (stereo not drawn) [Compound 8, (Z)-2-ethyl-4-phenyl-2-hexen-1-ol] :: 2
3) C/C(=C\C(C)c1ccccc1)CO (stereo not drawn) [Compound 10, (E)-2-methyl-4-phenyl-2-penten-1-ol] :: 32.5

---

# TARGET OR SYSTEM: human TRPA1 (Homo sapiens, UniProt O75762)
# PROCEDURE TEXT: Calcium imaging of TRPA1 activation in human TRPA1 stably expressing HEK293 cells
# CONDITION LABEL: HEK293, read-out: Ratio for TRPA1 inhibition (%), 5.0 μM AITC; test material 100 μM
REPORTED PROPERTY: inhibition at 100 µM (%)

1) CC(CO)CCc1ccccc1 (stereo not drawn) :: 19.5
2) C/C(=C\C(C)c1ccccc1)CO (stereo not drawn) [Compound 10, (E)-2-methyl-4-phenyl-2-penten-1-ol] :: 92.9
3) CC(CO)C(C)Cc1ccccc1 (stereo not drawn) :: 89.5
4) CC(CC(C)C(C)O)c1ccccc1 (stereo not drawn) :: 54.9
5) CC/C(=C\C(CC)c1ccccc1)CO (stereo not drawn) [Compound 7, (E)-2-ethyl-4-phenyl-2-hexen-1-ol] :: 103
6) OCCCCc1ccccc1 [Comparative Compound 2, 4-phenyl-1-butanol, reference compound] :: 0
7) CC/C(=C/C(CC)c1ccccc1)CO (stereo not drawn) [Compound 8, (Z)-2-ethyl-4-phenyl-2-hexen-1-ol] :: 102
8) CCC(C=C(C)CO)c1ccccc1 (stereo not drawn) :: 83.4
9) CCC(CC(C)CO)c1ccccc1 (stereo not drawn) :: 18.7

---

# TARGET OR SYSTEM: human TRPA1 (Homo sapiens)
# PROCEDURE TEXT: Calcium imaging of TRPA1 activation in human TRPA1 stably expressing HEK293 cells
# CONDITION LABEL: HEK293, read-out: Ratio for TRPA1 inhibition (%), 10 μM AITC; test material 100 μM
REPORTED PROPERTY: inhibition at 100 µM (%)

1) CC(CCCO)c1ccccc1 (stereo not shown) [Comparative Compound 1, 4-phenyl-1-pentanol, reference compound] :: 0
2) CC/C(=C/C(CC)c1ccccc1)CO (stereo not shown) [Compound 8, (Z)-2-ethyl-4-phenyl-2-hexen-1-ol] :: 101
3) CC/C(=C\C(CC)c1ccccc1)CO (stereo not shown) [Compound 7, (E)-2-ethyl-4-phenyl-2-hexen-1-ol] :: 102
4) OCCCCc1ccccc1 [Comparative Compound 2, 4-phenyl-1-butanol, reference compound] :: 0.8
5) CC(CO)CCc1ccccc1 (stereo not shown) :: 3.9
6) C/C(=C\C(C)c1ccccc1)CO (stereo not shown) [Compound 10, (E)-2-methyl-4-phenyl-2-penten-1-ol] :: 31.8
7) CCC(CC(C)CO)c1ccccc1 (stereo not shown) :: 9.7
8) CCC(C=C(C)CO)c1ccccc1 (stereo not shown) :: 27.6
9) CC(CO)C(C)Cc1ccccc1 (stereo not shown) :: 51.7
10) CC(CC(C)C(C)O)c1ccccc1 (stereo not shown) :: 27.1

Recorded values, source patent US9856196B2.
